# tested-on: CaBzz1-D2
# assay-overview: SPOT peptide array binding signal intensity (averaged, normalized) (arbitrary units (background-subtracted, floor 0; scale differs between SH3 domains)); higher = stronger binding of the SH3 domain to the peptide
metric-name: SPOT peptide array binding signal intensity

binder	value-measured
VGFRLALKFPSRITG	473
KRNRLKILLPFLEQS	66.8
SKSRLLIELPEGFFT	18.8
FYNRTAFQLPGDARV	30.5
